meta.source: ChEMBL document CHEMBL5241088

Measured IC50, listed per entry for reference.
assayTarget: NAD-dependent protein deacetylase sirtuin-2 (Homo sapiens)
Sequence (Q8IXJ6 whole entry): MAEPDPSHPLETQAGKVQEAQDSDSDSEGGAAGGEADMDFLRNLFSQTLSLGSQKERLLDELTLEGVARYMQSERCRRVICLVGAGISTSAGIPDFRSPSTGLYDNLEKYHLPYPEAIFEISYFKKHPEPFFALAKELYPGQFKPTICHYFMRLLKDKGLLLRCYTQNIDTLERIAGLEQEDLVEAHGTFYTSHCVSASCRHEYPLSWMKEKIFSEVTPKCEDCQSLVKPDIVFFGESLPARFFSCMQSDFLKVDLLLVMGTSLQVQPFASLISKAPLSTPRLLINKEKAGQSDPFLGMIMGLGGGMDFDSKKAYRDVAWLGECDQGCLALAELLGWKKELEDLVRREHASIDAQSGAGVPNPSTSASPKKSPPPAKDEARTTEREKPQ
testSummary: Inhibition of SIRT2 (unknown origin)

| compoundStructureString | IC50, nM |
| --- | --- |
| C[C@H](NC(=O)[C@H](CCCCNC(=S)CNC(=O)c1ccccc1Nc1cccc(OCCc2ccccc2)c1)NC(=O)OCc1ccccc1)C(N)=O | 1560 |
| Cc1[nH]c2c(c1C(=O)N(C)Cc1cccc(-c3ccc(C(F)(F)F)cc3)c1)C(=O)CC(C)(C)C2 | 980 |

----------
assayTarget: UniProt Q8IXJ6
Sequence (Q8IXJ6 whole entry): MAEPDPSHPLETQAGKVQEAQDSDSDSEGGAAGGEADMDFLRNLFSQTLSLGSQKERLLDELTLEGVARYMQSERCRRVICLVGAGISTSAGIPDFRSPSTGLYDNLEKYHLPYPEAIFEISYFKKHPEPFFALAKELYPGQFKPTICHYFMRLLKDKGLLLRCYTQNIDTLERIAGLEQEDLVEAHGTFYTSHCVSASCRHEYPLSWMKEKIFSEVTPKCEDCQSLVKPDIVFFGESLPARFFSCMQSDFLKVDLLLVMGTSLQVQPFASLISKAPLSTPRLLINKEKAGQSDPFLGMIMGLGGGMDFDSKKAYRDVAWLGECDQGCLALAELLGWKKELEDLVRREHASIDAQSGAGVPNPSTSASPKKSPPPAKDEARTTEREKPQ
testSummary: Inhibition of human SIRT2 deacetylase activity using QPKKac as substrate

| compoundStructureString | IC50 (nM) |
| --- | --- |
| CCCCCCCCCCCCCC(=S)NCCCC[C@H](NS(C)(=O)=O)C(=O)N[C@H](C)C(=O)N[C@@H](CCCNC(=N)N)C(N)=O | 70 |

----------
Tested on: HEK-293T
testSummary: Antiproliferative activity against human HEK293T cells
Type: functional, cell-based

| compoundStructureString | IC50 |
| --- | --- |
| CCCCCCCCCCCCCC(=S)NCCCC[C@H](NS(C)(=O)=O)C(=O)N[C@@H](C)C(=O)N[C@@H](CCCNC(=N)N)C(N)=O | 10 nM |
| CCCCCCCCCCCCCC(=S)NCCCC[C@H](NS(C)(=O)=O)C(=O)N[C@H](C)C(=O)N[C@@H](CCCNC(=N)N)C(N)=O | 100 nM |

----------
assayTarget: NAD-dependent protein deacetylase sirtuin-2 (Homo sapiens, UniProt Q8IXJ6)
testSummary: Inhibition of recombinant SIRT2 (unknown origin) using (FAM)-labeled fluorescent peptide-RHKK(Ac)LM by electrophoretic mobility shift assay
attributeMeasured: IC50 (nM)

| compoundStructureString | attributeMeasured | resultUnits | resultValue |
| --- | --- | --- | --- |
| C=CCNC(=S)N/N=C/c1ccc(OC)c(Cn2cc([N+](=O)[O-])cn2)c1 | IC50 | nM | 180 |

----------
assayTarget: NAD-dependent protein deacetylase sirtuin-2 (Homo sapiens, UniProt Q8IXJ6)
Sequence (Q8IXJ6 whole entry): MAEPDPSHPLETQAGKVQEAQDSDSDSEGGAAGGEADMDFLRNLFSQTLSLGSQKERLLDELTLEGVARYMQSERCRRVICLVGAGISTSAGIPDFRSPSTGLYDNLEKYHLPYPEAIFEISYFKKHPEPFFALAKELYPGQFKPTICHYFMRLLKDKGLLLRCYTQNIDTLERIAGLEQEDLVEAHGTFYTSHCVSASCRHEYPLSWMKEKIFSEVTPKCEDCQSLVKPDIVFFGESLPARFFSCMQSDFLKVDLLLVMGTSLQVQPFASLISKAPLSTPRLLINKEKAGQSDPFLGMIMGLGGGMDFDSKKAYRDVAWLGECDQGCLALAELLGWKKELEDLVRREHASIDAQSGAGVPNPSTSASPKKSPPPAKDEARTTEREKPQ
testSummary: Inhibition of human SIRT2 using Ac-peptide as substrate assessed as fluorescence intensity by microplate reader
attributeMeasured: IC50 (nM)

| compoundStructureString | resultValue |
| --- | --- |
| O=C(CSc1nnc2c3ccccc3n(Cc3ccccc3)c2n1)Nc1cccc2ccccc12 | 1300 |

----------
assayTarget: NAD-dependent protein deacetylase sirtuin-2 (Homo sapiens)
Sequence (Q8IXJ6 whole entry): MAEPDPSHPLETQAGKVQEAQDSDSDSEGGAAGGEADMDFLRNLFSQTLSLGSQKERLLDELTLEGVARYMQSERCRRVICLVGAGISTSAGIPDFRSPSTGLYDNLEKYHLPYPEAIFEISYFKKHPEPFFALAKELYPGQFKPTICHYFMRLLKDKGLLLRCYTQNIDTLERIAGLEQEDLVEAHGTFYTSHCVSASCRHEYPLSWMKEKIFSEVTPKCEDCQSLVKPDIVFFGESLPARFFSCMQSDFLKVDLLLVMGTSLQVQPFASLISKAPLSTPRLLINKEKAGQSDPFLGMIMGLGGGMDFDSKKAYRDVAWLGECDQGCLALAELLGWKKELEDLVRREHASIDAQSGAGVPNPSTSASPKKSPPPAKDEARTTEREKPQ
testSummary: Inhibition of human SIRT2 using sirtuin substrate incubated for 30 mins by enzymatic fluorescence assay
IC50 by entry:
attributeMeasured: IC50 (µM)

| compoundStructureString | attributeMeasured | resultValue |
| --- | --- | --- |
| CC(C)=CCc1c(O)cc2oc3cc(O)c(O)c(CC=C(C)C)c3c(=O)c2c1O | IC50 | 3.8 |
| COc1c(O)cc2oc3cc(O)c(CC=C(C)C)c(O)c3c(=O)c2c1CC=C(C)C | IC50 | 9.2 |
| COc1cc2oc3cc(O)c(OC)c(CC=C(C)C)c3c(=O)c2c(O)c1CC=C(C)C | IC50 | 18.9 |

----------
assayTarget: NAD-dependent protein deacetylase sirtuin-2 (Homo sapiens)
testSummary: Inhibition of human GST-fused SIRT2 expressed in Escherichia coli BL21(DE3)

| molecule | assayTarget | IC50, nM |
| --- | --- | --- |
| CCC(C)(C)c1ccc(OCC(O)CN2C[C@@H]3C[C@H](C2)c2cccc(=O)n2C3)c(C(C)(C)CC)c1 (stereo partly specified) | NAD-dependent protein deacetylase sirtuin-2 (Homo sapiens) | 460 |

----------
Test system: MDA-MB-231
testSummary: Cytotoxicity against human MDA-MB-231 cells assessed as cell viability measured after 3 days by Cell Titer Blue assay
Assay type: functional, cell-based
conditionDetails: MDA-MB-231, 72 h
pIC50: −log10 of the molar value.
attributeMeasured: pIC50

| compound | assayTarget | attributeMeasured | resultValue |
| --- | --- | --- | --- |
| CCCCCCCCCCCCCC(=S)NCCCCC(NC(=O)OCc1ccccc1)C(=O)Nc1ccccc1 (stereo unspecified) | MDA-MB-231 | pIC50 | 4.47 |
